This collection of values is drawn from patent US8329865B2.

The sequences listed here are annotated with their IC90.
System: S. epidermidis ATCC 12228
Format: cell-based, Staphylococcus epidermidis
Experimental: Antimicrobial assays. Antimicrobial assays were performed using the CFU assay as previously described (Rieg, S. et al. 2005 J. Immunol. 174:8003-8010, Schittek, B. et al. 2001 Nat. Immunol. 2:1133-1137). […] Absorbance of 1.0 corresponded to 8.56×10^8/ml for E. coli; 1×10^8/ml for E. coli ML-35p; 1.97×10^8/ml for S. aureus, MRSA, and the wild-type and membrane mutants of S. aureus and S. epidermidis; and 5.07×10^8/ml for P. aeruginosa. […]
No end group written: not given here.
Kindly answer with a numeric value in µg/mL, unit omitted.

{"sequenceText": "SSLLEKGLDGAKKAVGGLGKLGK [SSL-23]", "numericReadout": 8}

Now let's try a different one.
IC90 measured on SSLLEKGLDGAKKAVGGLGKLGKDAVEDLESVGKGAVHDVKDVLDSVL [DCD-1L] = 10

----------
Test system: S. aureus mprF
Format: cell-based, Staphylococcus aureus
measurementContext: 10 mM NaP-10 mM NaCl, CFU assay
No end group written: not given here.
IC90 values by entry
Entry rule: numbers only, all in µg/mL.

Bench note, S. aureus mprF: entry SSLLEKGLDGAKKAVGGLGKLGKDAVEDLESVGKGAVHDVKDVLDSVL [DCD-1L] , its IC90 = 50

Entry SSLLEKGLDGAKKAVGGLGKLGKDAVEDL [SSL-29] : IC90 on S. aureus mprF = 180

Record SSLLEKGLDGAKKAVGGLGKLGK [SSL-23] has S. aureus mprF IC90 equal to 50

----------
We begin with a simple list: items and their reported IC90.
System: P. aeruginosa ATCC 27853
Type: cell-based, Pseudomonas aeruginosa
No end group written: not given here.

Examples with answers:
{"sequenceText": "SSLLEKGLDGAKKAVGGLGKLGKDA [SSL-25]", "IC90": "200 µg/mL"}
{"sequenceText": "LEKGLDGAKKAVGGLGKLGKDAVEDLESVGKGAVHDVKDVLDSVL [LEK-45]", "IC90": ">200 (>44) μg/ml"}
{"sequenceText": "SSLLEKGLDGAKKAVGGLGKLGKDAVEDLESVGKGAVHDVKDVLDSVL [DCD-1L]", "IC90": ">200 µg/mL"}
{"sequenceText": "SSLLEKGLDGAKKAVGGLGKLGK [SSL-23]", "IC90": ">200 µg/mL"}

For this sequence ( SSLLEKGLDGAKKAVGGLGKLGKDAVEDL [SSL-29] ), measured IC90 is >200 (>69) μg/ml

----------
A collection of sequences and their measured IC90
System: S. aureus (MSSA) ATCC 25923
Format: cell-based, Staphylococcus aureus
Protocol: Antimicrobial assays. Antimicrobial assays were performed using the CFU assay as previously described (Rieg, S. et al. 2005 J. Immunol. 174:8003-8010, Schittek, B. et al. 2001 Nat. Immunol. 2:1133-1137). […] Absorbance of 1.0 corresponded to 8.56×10^8/ml for E. coli; 1×10^8/ml for E. coli ML-35p; 1.97×10^8/ml for S. aureus, MRSA, and the wild-type and membrane mutants of S. aureus and S. epidermidis; and 5.07×10^8/ml for P. aeruginosa. […]
No end group written: not given here.
Respond with the bare value in µg/mL.

Below, each entry is followed by its recorded IC90 result.
{"sequenceText": "SSLLEKGLDGAKKAVGGLGKLGKDA [SSL-25]", "assayedTarget": "S. aureus (MSSA) ATCC 25923", "unitsOfMeasure": "µg/mL", "numericReadout": 48}
{"sequenceText": "SSLLEKGLDGAKKAVGGLGKLGKDAVEDLESVGKGAVHDVKDVLDSVL [DCD-1L]", "assayedTarget": "S. aureus (MSSA) ATCC 25923", "unitsOfMeasure": "µg/mL", "numericReadout": 45}

Okay, now this sequence:
Documented IC90 of SSLLEKGLDGAKKAVGGLGKLGK [SSL-23] : 10

----------
Tested on: S. epidermidis ATCC 12228
Assay type: cell-based, Staphylococcus epidermidis
No end group written: not given here.
This listing pairs sequences with measured IC90.

{"sequenceText": "LEKGLDGAKKAVGGLGKLGKDAVEDLESVGKGAVHDVKDVLDSVL [LEK-45]", "quantity": "IC90", "result": "200 (44) μg/ml"}
{"sequenceText": "SSLLEKGLDGAKKAVGGLGKLGKDAVEDL [SSL-29]", "quantity": "IC90", "result": "200 (69) μg/ml"}

Consider now this further sequence.
Entry SSLLEKGLDGAKKAVGGLGKLGKDA [SSL-25] under S. epidermidis ATCC 12228 had IC90 of >200 µg/mL
